Measured growth, listed per entry for reference.
- Test system: Escherichia coli IAI1
- measurement_protocol: growth (OD595) fold change vs plate DMSO controls (fold change (ratio)); higher = more growth
- details: 20 µM; incubation time: 27 h, anaerobic, 37 °C
Structures can show the parent of a compound that is named as a salt.
property: growth

compound="CC[C@@]1([C@@H]2O[C@@H]([C@H]3O[C@@](O)(CO)[C@H](C)C[C@@H]3C)C[C@@H]2C)CC[C@H]([C@]2(C)CC[C@]3(C[C@H](O)[C@@H](C)[C@@H]([C@@H](C)[C@@H](OC)[C@H](C)C(=O)O)O3)O2)O1 [Monensin sodium salt]" property=growth observed_result=1.09
compound="CCSC(C)CC1CC(=O)C(/C(CC)=N/OC/C=C/Cl)=C(O)C1 (mixture of isomers)" property=growth observed_result=1.04
compound="NCC(CC(=O)O)c1ccc(Cl)cc1 (stereo not drawn)" property=growth observed_result=1.17

---

Measured growth, listed per entry for reference.
- Test system: Ruminococcus gnavus DSM 108212
- measurement_protocol: growth (OD595) fold change vs plate DMSO controls (fold change (ratio)); higher = more growth
- details: 20 µM; incubation time: 27 h, anaerobic, 37 °C
Counter-ions that a name gives are not always drawn.
property: growth

molecule="C1=Cc2cccc3cccc1c23 [Acenaphthylene]" observed_result=1.15
molecule="CN(C)C(=O)Oc1ccc[n+](C)c1 [Pyridostigmine iodide]" observed_result=0.901
molecule="CCN(C)C(=O)Oc1cccc([C@H](C)N(C)C)c1 [Rivastigmine]" observed_result=1.05
molecule="CCSC(C)CC1CC(=O)C(/C(CC)=N/OC/C=C/Cl)=C(O)C1 (mixture of isomers)" observed_result=0.939
molecule="CC(C)C[C@H]1C(=O)N2CCC[C@H]2[C@]2(O)O[C@](NC(=O)[C@@H]3C=C4c5cccc6[nH]c(Br)c(c56)C[C@H]4N(C)C3)(C(C)C)C(=O)N12 [Bromocryptine mesylate]" observed_result=1.06
molecule=Cc1cc(C(F)(C(F)(F)F)C(F)(F)F)ccc1NC(=O)c1cccc(I)c1C(=O)NC(C)(C)CS(C)(=O)=O observed_result=0.917
molecule="C[N+]1(C)CCOC(O)(c2ccc(-c3ccc(C4(O)C[N+](C)(C)CCO4)cc3)cc2)C1 (stereo not drawn) [Hemicholinium bromide]" observed_result=1.27
molecule=O=C(O)CNCP(=O)(O)O observed_result=0.965
molecule="CCCN(CCC)N=O [NDPA (N-nitrosodipropylamine)]" observed_result=0.958
molecule="C=C1CC[C@@]2(O)[C@H]3Cc4ccc(O)c5c4[C@@]2(CCN3CC2CC2)[C@H]1O5 [Nalmefene hydrochloride]" observed_result=1.07
molecule=CN/C(=N\[N+](=O)[O-])NCc1cnc(Cl)s1 observed_result=0.944
molecule=COP(=O)(OC)OC=C(Cl)Cl observed_result=1.07
molecule=CO/C=C(/C(=O)OC)c1ccccc1Oc1cc(Oc2ccccc2C#N)ncn1 observed_result=0.966
molecule="CC(=O)OCC(=O)[C@H]1CC[C@H]2[C@@H]3CC[C@H]4C[C@H](O)CC[C@]4(C)[C@H]3C(=O)C[C@]12C [Alfadolone acetate]" observed_result=1.11
molecule="N#Cc1nn(-c2c(Cl)cc(C(F)(F)F)cc2Cl)c(N)c1[S+]([O-])C(F)(F)F (stereo not drawn)" observed_result=1.02
molecule=CCCN(CCOc1c(Cl)cc(Cl)cc1Cl)C(=O)n1ccnc1 observed_result=0.951
molecule="C[C@@H]1C[C@@H]([C@H](O)CC2CC(=O)NC(=O)C2)C(=O)[C@@H](C)C1 [Cycloheximide]" observed_result=1.25
molecule="COc1cc2c(c(OC)c1OC)-c1ccc(OC)c(=O)cc1[C@@H](NC(C)=O)CC2 [Colchicine]" observed_result=1.16
molecule="CC(Oc1ccc(Oc2ncc(C(F)(F)F)cc2Cl)cc1)C(=O)O (stereo not drawn)" observed_result=0.977
molecule=CC1(C)[C@H](C(=O)O[C@H](C#N)c2cccc(Oc3ccccc3)c2)[C@@H]1C=C(Br)Br observed_result=1.02
molecule="CC(C1CC1)C(O)(Cn1cncn1)c1ccc(Cl)cc1 (mixture of isomers)" observed_result=0.941
molecule="O=C1C=CC(=O)C=C1 [1,4-Benzoquinone]" observed_result=0.66
molecule="CCCC(C)C1(CC)C(=O)NC(=O)NC1=O (stereo not drawn) [Pentobarbital]" observed_result=0.814
molecule="CC(C)CC(N(C)C)C1(c2ccc(Cl)cc2)CCC1 (stereo not drawn) [Sibutramine hydrochloride]" observed_result=0.908
molecule="CC(N)C(O)c1ccccc1 (stereo not drawn) [Phenylpropanolamine hydrochloride]" observed_result=1.21
molecule=CCCCN(CCCC)SN(C)C(=O)Oc1cccc2c1OC(C)(C)C2 observed_result=0.993
molecule="CC(C)c1cccc(C(C)C)c1O [Propofol]" observed_result=1.03
molecule="CC(C)CC(C)c1sccc1NC(=O)c1cn(C)nc1C(F)(F)F (stereo not drawn)" observed_result=0.961
molecule="C[C@]12C=CC(=O)C=C1CC[C@@H]1[C@@H]2CC[C@@]2(C)[C@H]1CC[C@]2(C)O [Methandrostenolone]" observed_result=0.931
molecule=CC(=NC#N)N(C)Cc1ccc(Cl)nc1 observed_result=1.13
molecule="C=CC[C@]1(O)CC[C@H]2[C@@H]3CCC4=CCCC[C@@H]4[C@H]3CC[C@@]21C [Allylestrenol]" observed_result=1.09
molecule=C[N+](C)(C)CCCl observed_result=0.97
molecule="C[C@]12C/C(=C/O)C(=O)C[C@@H]1CC[C@@H]1[C@@H]2CC[C@@]2(C)[C@H]1CC[C@]2(C)O [Oxymetholone]" observed_result=1.16
molecule=COC(=O)Nc1nc2ccccc2[nH]1 observed_result=0.903
molecule=CCC(=O)Nc1ccc(Cl)c(Cl)c1 observed_result=1.01
molecule=CO/N=C(/C(=O)OC)c1ccccc1CO/N=C(\C)c1cccc(C(F)(F)F)c1 observed_result=1.1
molecule="CCCC[N+]1(C)[C@@H]2C[C@@H](OC(=O)[C@H](CO)c3ccccc3)C[C@H]1[C@@H]1O[C@@H]12 (stereo partly drawn) [N-Butylscopolammonium bromide]" observed_result=1.06
molecule=CS(=O)(=O)c1cc(C(F)(F)F)ccc1C(=O)c1cnoc1C1CC1 observed_result=0.964

---

- System: Ruminococcus gnavus DSM 108212
- measurement_protocol: fold change of Tryptamine concentration vs plate DMSO controls (fold change (ratio)); higher = more amine produced, active = hit call of the paper (significant change in both replicates, either direction);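 for the amine columns active = adjusted P below 0.05 in both replicates with a change the same way and a mean fold change under 0.8 or over 1.25; inactive = the rest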
- details: 20 µM; incubation time: 27 h, anaerobic, 37 °C
Counter-ions that a name gives are not always drawn.
Possible outcomes: true (1) (active), false (0) (inactive)

compound=C[N+](C)(C)CCCl assigned_label="false (0)"
compound="CN1[C@@H]2CC[C@H]1C[C@@H](OC(=O)C(CO)c1ccccc1)C2 (some centres undefined) [Atropine sulfate monohydrate]" assigned_label="false (0)"
compound=COC(=O)Nc1nc2ccccc2[nH]1 assigned_label="false (0)"
compound="COCc1cnc(C2=NC(C)(C(C)C)C(=O)N2)c(C(=O)O)c1 (centres undefined)" assigned_label="false (0)"
compound="CCCN1C[C@H](CSC)C[C@@H]2c3cccc4[nH]cc(c34)C[C@H]21 [Pergolide mesylate]" assigned_label="false (0)"
compound="CC(=O)O[C@H]1C[C@@H]2CC[C@@H]3[C@H](CC[C@@]4(C)[C@H]3C[C@H]([N+]3(C)CCCCC3)[C@@H]4OC(C)=O)[C@@]2(C)C[C@@H]1[N+]1(C)CCCCC1 [Pancuronium bromide]" assigned_label="false (0)"
compound=N#Cc1sc2c(=O)c3ccccc3c(=O)c=2sc1C#N assigned_label="false (0)"
compound="N#Cc1nn(-c2c(Cl)cc(C(F)(F)F)cc2Cl)c(N)c1[S+]([O-])C(F)(F)F (centres undefined) [Fipronil]" assigned_label="false (0)"
compound=O=C(Nc1ccccc1-c1ccc(Cl)cc1)c1cccnc1Cl assigned_label="false (0)"
compound="O=C(NC(=O)c1c(F)cccc1F)Nc1ccc(OC(F)(F)C(F)OC(F)(F)F)c(Cl)c1 (centres undefined)" assigned_label="false (0)"
compound="CC(CCc1ccccc1)NC(C)C(O)c1ccc(O)cc1 (centres undefined)" assigned_label="false (0)"
compound=Fc1ccc(Oc2ccnc3cc(Cl)cc(Cl)c23)cc1 assigned_label="false (0)"
compound="CC1COC(Cn2cncn2)(c2ccc(Oc3ccc(Cl)cc3)cc2Cl)O1 (centres undefined)" assigned_label="false (0)"
compound="CCSC(C)CC1CC(=O)C(/C(CC)=N/OC/C=C/Cl)=C(O)C1 (mixture of isomers)" assigned_label="false (0)"
compound=NCCCNCCSP(=O)(O)O assigned_label="false (0)"
compound="CC(Oc1ccc(Oc2ncc(C(F)(F)F)cc2Cl)cc1)C(=O)O (centres undefined)" assigned_label="false (0)"
compound="CNC(C)(C)Cc1ccccc1 [Mephentermine hemisulfate]" assigned_label="false (0)"
compound="CC(C)=CC1C(C(=O)OCc2cccc(Oc3ccccc3)c2)C1(C)C (centres undefined)" assigned_label="false (0)"
compound=C[C@]12C/C(=C/O)C(=O)C[C@@H]1CC[C@@H]1[C@@H]2CC[C@@]2(C)[C@H]1CC[C@]2(C)O assigned_label="true (1)"
